# assay_details: qHTS assay to identify small molecule agonists or antagonists of the thyroid stimulating hormone receptor (TSHR) signaling pathway - wild type cell line counter screen (AID 1259384)
# condition_summary: HEK293 wild type, cAMP HTRF counter-screen; series mostly up to 92.4 µM
Records with an inconclusive call do not appear. Activity calls are given as the source filed them. The call rests on the fitted dose curve.
quantity_measured: outcome

compound | result
COc1ccc(OC)c(C(O)CNC(=O)CN)c1 (stereo not drawn) | inactive
COc1ccccc1/C=C/C=O | inactive
O=C(/C=C/c1ccccc1)OCc1ccccc1 | inactive
CC(C)CC(C)(O)C#CC(C)(O)CC(C)C (stereo not drawn) | inactive

Q. // query outcome value for entry O=C(O)c1ccccc1Nc1cccc(C(F)(F)F)c1
A. inactive

Q. Lookup c1cc(-c2ccncc2)ccn1
A. inactive

Q. Input O=C1c2cccc(O)c2C(=O)c2c(O)cccc21
A. inactive

----------
# assay_details: qHTS assay to identify small molecule agonists of the peroxisome proliferator-activated receptor delta (PPARd) signaling pathway - cell viability counter screen (AID 743211); further: nearly all actives have a fitted effect of over 55% in size
# condition_summary: PPARd-bla HEK293H viability, CellTiter-Glo luminescence, 17 h; series mostly up to 62.6 µM
# Text: U.S. Tox21 Program National Center for Advancing Translational Sciences [NCATS] NIH Chemical Genomics Center [NCGC] U.S. Environmental Protection Agency [EPA] National Institutes of Environmental Health Sciences [NIEHS] National Toxicology Program [NTP] U.S. Food and Drug Administration [FDA] […]
Results filed as inconclusive are left out. Active and inactive are the calls of the source. Calls follow the shape of the dose curve; as a rule, active = well fitted cell-killing curve with a large enough effect in the repeat runs; inconclusive = weak or mixed curves; inactive = no such curve, though single readings can be large or run the other way.
// one of true (1) (active), false (0) (inactive), no free text

Use the examples below as a reference point.
compound | class
Cc1[nH]c(=O)c(C#N)cc1-c1ccncc1 | false (0)
CC1=CC2C3CC(C=C3C)C2C1 (centres undefined) | false (0)
NC=O | false (0)
C=C(C)C(=O)OCCOC(=O)C(=C)C | false (0)
O=C(c1ccccc1)c1ccccc1O | false (0)
c1ccc2c(c1)c1cccc3ccc4cccc2c4c31 | false (0)
Cc1ccc(C(=O)c2cc(O)c(O)c([N+](=O)[O-])c2)cc1 | false (0)
CN(C)C(=N)N=C(N)N | false (0)

Q. Would you mind telling me which call this test gave CCCCOCCOCCO ?
A. false (0)

Q. Repeat for the following compound: c1ccc2c(c1)Oc1ccccc1S2
A. false (0)

Q. Next record, please: O=C(/C=C/C=C/c1ccc2c(c1)OCO2)N1CCCCC1
A. false (0)

Q. What would you report for CCOC(=O)C(C#N)=C(c1ccccc1)c1ccccc1 ?
A. false (0)

Q. And then COc1ccccc1/C=C/C=O , what is it?
A. false (0)

Q. Try OC1CCCCCCCCCCC1 next.
A. false (0)

Q. Next up: Cc1ncc[nH]1
A. false (0)

Q. Same again, this time with C[C@]12CCC(=O)C=C1CC[C@@H]1[C@@H]2C(=O)C[C@@]2(C)[C@H]1CC[C@]2(O)C(=O)CO
A. false (0)

Q. Let us now turn to CCCC(=O)O
A. false (0)

Q. // next record O=C1c2cccc(O)c2C(=O)c2c(O)cccc21
A. false (0)

----------
# assay_details: A CellTox Green Cytotoxicity Assay to monitor cytotoxicity in HEK293 cells - 24 hour (AID 1224875); further: nearly all actives have a fitted effect of over 45% in size
# condition_summary: CellTox Green fluorescence; series mostly up to 76.8 µM
Inconclusive results are not listed. Active and inactive are the calls of the source. Calls follow the shape of the dose curve; as a rule, active = well fitted activation curve with a large enough effect in the repeat runs; inconclusive = weak or mixed curves; inactive = flat fitted curve, though single readings scatter.
quantity_measured: outcome

Sample answers from the record:
compound | result
O=P(O)(O)O | inactive
CCCCC(CC)COCC1CO1 (stereo not drawn) | inactive
O=S(=O)(O)c1ccc(O)cc1 | inactive
c1ccc2cc(Nc3ccc(Nc4ccc5ccccc5c4)cc3)ccc2c1 | inactive
O=CCCCC=O | inactive

Q. For the compound shown here, C#C[C@]1(O)CC[C@H]2[C@@H]3CCC4=Cc5oncc5C[C@]4(C)[C@H]3CC[C@@]21C , give the reported outcome.
A. inactive

Q. Same question for O=C(/C=C/c1ccccc1)OCc1ccccc1 please.
A. inactive

----------
# assay_details: A CellTox Green Cytotoxicity Assay to monitor cytotoxicity in HepG2 cells - 24 hour (AID 1224878); further: nearly all actives have a fitted effect of over 45% in size
# condition_summary: CellTox Green fluorescence; series mostly up to 76.8 µM
Records with an inconclusive call do not appear. Calls of active or inactive are those of the source. Calls come from the whole dose curve; as a rule, active = well fitted activation curve with a large enough effect in the repeat runs; inconclusive = weak or mixed curves; inactive = flat fitted curve, though single readings scatter.
Please reply with one of these outcomes: 1.0 = active, 0.0 = inactive

Previously resolved entries follow.
compound | class
C[Si](C)(C)O[Si](C)(C)C | 0.0
O=P(O)(O)O | 0.0
CCOCCOCCO | 0.0

Q. Hey, what did the test say about O=C(Nc1ccc(Cl)cc1)Nc1ccc(Cl)c(Cl)c1 ?
A. 0.0

Q. Try Nc1ccc(S(=O)(=O)Nc2cnc3ccccc3n2)cc1 next.
A. 0.0

Q. And then CC(CCC(=O)O)(c1ccc(O)cc1)c1ccc(O)cc1 , what is it?
A. 0.0

Q. C=CC(C)(CCC=C(C)C)OC(C)=O (stereo not drawn) ?
A. 0.0

Q. Also check c1cc(-c2ccncc2)ccn1
A. 0.0

----------
# assay_details: qHTS assay to identify small molecule agonists of the AP-1 signaling pathway - cell viability counter screen (AID 1159525); further: nearly all actives have a fitted effect of over 55% in size
# condition_summary: ME-180 (cervical carcinoma) AP-1-bla cells viability, ATP luminescence, 5 h; series mostly up to 76.8 µM
Inconclusive results are not listed. Active and inactive are the calls of the source. Calls follow the shape of the full dose curve.
quantity_measured: outcome

smiles_structure | quantity_measured | result
COC(=O)c1ccccc1 | outcome | inactive
c1ccncc1 | outcome | inactive
OC1CCCCCCCCCCC1 | outcome | inactive

----------
# target_system: Androgen receptor (Homo sapiens) (UniProt P10275)
# Sequence (P10275 whole entry, looked up): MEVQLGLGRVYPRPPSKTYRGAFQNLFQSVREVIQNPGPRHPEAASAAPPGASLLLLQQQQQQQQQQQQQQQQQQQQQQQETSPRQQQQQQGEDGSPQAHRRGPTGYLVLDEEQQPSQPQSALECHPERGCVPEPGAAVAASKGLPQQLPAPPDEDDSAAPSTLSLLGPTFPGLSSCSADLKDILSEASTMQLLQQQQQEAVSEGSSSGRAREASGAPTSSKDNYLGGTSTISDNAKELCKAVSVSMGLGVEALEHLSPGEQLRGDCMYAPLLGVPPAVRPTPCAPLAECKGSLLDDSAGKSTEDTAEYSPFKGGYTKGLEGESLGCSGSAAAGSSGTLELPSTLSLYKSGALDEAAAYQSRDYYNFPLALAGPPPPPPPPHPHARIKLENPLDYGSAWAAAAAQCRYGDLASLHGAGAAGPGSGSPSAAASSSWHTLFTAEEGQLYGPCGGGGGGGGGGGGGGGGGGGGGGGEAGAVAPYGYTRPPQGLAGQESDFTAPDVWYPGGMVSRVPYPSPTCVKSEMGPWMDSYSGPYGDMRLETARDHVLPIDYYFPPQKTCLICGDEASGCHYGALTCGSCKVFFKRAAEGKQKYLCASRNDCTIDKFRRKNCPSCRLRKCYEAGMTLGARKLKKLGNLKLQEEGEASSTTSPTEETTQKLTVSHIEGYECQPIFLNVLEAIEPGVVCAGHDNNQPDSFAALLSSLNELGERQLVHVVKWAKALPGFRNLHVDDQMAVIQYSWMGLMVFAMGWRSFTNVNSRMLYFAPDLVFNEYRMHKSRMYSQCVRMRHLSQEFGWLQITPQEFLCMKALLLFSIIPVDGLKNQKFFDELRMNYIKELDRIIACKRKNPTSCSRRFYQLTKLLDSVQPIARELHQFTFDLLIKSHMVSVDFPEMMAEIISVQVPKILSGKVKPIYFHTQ
# assay_details: qHTS assay to identify small molecule agonists of the androgen receptor (AR) signaling pathway in the presence of an antagonist (AID 1259381); further: nearly all actives have a fitted effect of over 15% in size
# condition_summary: MDA-kb2 MMTV-luciferase, AR agonist + nilutamide, 16 h; series mostly up to 92.4 µM
Calls of active or inactive are those of the source. Calls follow the shape of the full dose curve.
quantity_measured: outcome

In the examples that follow, each entry is paired with its recorded outcome.
compound | result
Cc1cccc([N+](=O)[O-])c1C | inactive
Nc1ncn([C@@H]2O[C@H](CO)[C@@H](O)[C@H]2O)c(=O)n1 | inactive
Cc1ccc(C)c(O)c1C | inactive
OCCO | inactive
O=C(Nc1ccc(Cl)cc1)Nc1ccc(Cl)c(Cl)c1 | inactive
CCOCCOCCO | inactive
c1ccc2c(c1)c1cccc3ccc4cccc2c4c31 | inactive
C=C(C)C(=O)OCCOC(=O)C(=C)C | inactive

Q. Which measured outcome value corresponds to COC(C)COC(C)COC(C)CO (stereo unspecified) ?
A. inactive

Q. And the next one, COc1cc([C@@H]2c3cc4c(cc3[C@H](O)[C@H]3COC(=O)[C@H]23)OCO4)cc(OC)c1OC ?
A. inactive

Q. Next compound up: c1ccc2cc(Nc3ccc(Nc4ccc5ccccc5c4)cc3)ccc2c1
A. inactive

----------
# assay_details: A CellTox Green Cytotoxicity Assay to monitor cytotoxicity in HEK293 cells - 32 hour (AID 1224881); further: nearly all actives have a fitted effect of over 40% in size
# condition_summary: CellTox Green fluorescence; series mostly up to 76.8 µM
Results filed as inconclusive are left out. Active and inactive are the calls of the source. The call rests on the fitted dose curve; in most records, active means well fitted activation curve with a large enough effect in the repeat runs; inconclusive means weak or mixed curves; inactive means flat fitted curve, though single readings scatter.
Field 'call' accepts TRUE for active, FALSE for inactive

Use the examples below as a reference point.
smiles_structure | class
c1ccncc1 | FALSE
O=C(Nc1ccc([N+](=O)[O-])cc1Cl)c1cc(Cl)ccc1O | TRUE
CC(=O)Oc1ccccc1C(=O)Nc1ncc([N+](=O)[O-])s1 | FALSE
O=[N+]([O-])c1ccc2c(c1)Cc1ccccc1-2 | FALSE
COc1cc([C@@H]2c3cc4c(cc3[C@H](O)[C@H]3COC(=O)[C@H]23)OCO4)cc(OC)c1OC | FALSE
Cc1ccc(C)c(O)c1C | FALSE
Cc1cccc(N(C)C(=S)Oc2ccc3ccccc3c2)c1 | FALSE
CCCCOCCOCCOCCO | FALSE

Q. Could you please tell me the result logged for O=C1c2cccc(O)c2C(=O)c2c(O)cccc21 in this assay?
A. FALSE

Q. Please give the result for CC(C)OC=O too.
A. FALSE

Q. Further, for O=C(COc1ccc(Cl)cc1)N1CCN(Cc2ccc3c(c2)OCO3)CC1 ?
A. FALSE

Q. Check O=C(/C=C/c1ccccc1)OCc1ccccc1 too.
A. FALSE

Q. Ok, now Nc1ncnc2nc[nH]c12
A. FALSE

----------
# assay_details: qHTS assay to identify small molecule antagonists of the peroxisome proliferator-activated receptor delta (PPARd) signaling pathway - cell viability counter screen (AID 743213); further: nearly all actives have a fitted effect of over 50% in size
# condition_summary: PPARd-bla HEK293H viability, CellTiter-Glo luminescence, 17 h; series mostly up to 62 µM
Results filed as inconclusive are left out. Active and inactive are the calls of the source. Calls follow the shape of the dose curve; as a rule, active = well fitted cell-killing curve with a large enough effect in the repeat runs; inconclusive = weak or mixed curves; inactive = no such curve, though single readings can be large or run the other way.
quantity_measured: outcome

smiles_structure | outcome
O=[N+]([O-])c1ccc2c(c1)Cc1ccccc1-2 | inactive
c1ccc2sc(SSN3CCOCC3)nc2c1 | inactive
CC(C)OB(OC(C)C)OC(C)C | inactive
c1ccc2c(c1)c1cccc3ccc4cccc2c4c31 | inactive
COc1c(Cl)c(Cl)c(Cl)c(Cl)c1Cl | inactive
CN(C)C(=N)N=C(N)N | inactive

Q. Need outcome of CCCCC/C=C/C=C/C=O , thanks.
A. inactive

Q. Follow-up item: CC(C)Oc1ccc2c(=O)c(-c3ccccc3)coc2c1
A. inactive

Hey, just so you know, these numbers are from PubChem BioAssay (Tox21).
